- Test system: S. aureus (ATCC 29213)
# MIC values compiled below

# MOLECULE, MEASUREMENT_TARGET, OBSERVED_VALUE
rows = [
    ("O=c1c(NCc2nc3ccccc3[nH]2)c(NCc2ccc(Cl)cc2Cl)c1=O", "S. aureus (ATCC 29213)", "> 10 µg/mL"),
    ("O=C(Cc1cc(Cl)cc(Cl)c1)N1CCCC(c2nc3nc(F)ccc3[nH]2)C1 (centres unmarked)", "S. aureus (ATCC 29213)", "> 10 µg/mL"),
    ("C[C@@H](CNCc1cc(Cl)cc(Cl)c1)CNc1nc2nc(F)ccc2[nH]1", "S. aureus (ATCC 29213)", "5 µg/mL"),
    ("O=C(NCc1nc2ccccc2[nH]1)OCCc1ccc(Cl)cc1Cl", "S. aureus (ATCC 29213)", "> 10 µg/mL"),
]

Next item in the queue.
Need MIC of O=C(Cc1cc(Cl)cc(Cl)c1)N1CCCC(c2nc3cc(Cl)ccc3[nH]2)C1 (centres unmarked) , thanks.
> 10 µg/mL

// provenance: patent US10913736B2
